assay: Pharmacokinetic study in rats after intragastrical administration; assay type: in vivo; settings: rat; male SD rats, oral 3 mg/kg, plasma; read-out: AUC(0-24)
valueType: AUC(0-t) (µg·h/mL)
Lab book: enter the figure in µg·h/mL, no units written.

Give the value of AUC(0-t) reported for the following: COc1cc(-c2c(C)cc3c(c2NC(=O)NS(=O)(=O)c2ccn(C4CC(=C(F)F)C4)n2)CCC3)ccn1 (stereo not shown) [Compound 22]
6.71

----------
assay: Pharmacokinetic study in rats after intragastrical administration; format: in vivo; settings: rat; male SD rats, oral 3 mg/kg, plasma
valueType: Tmax (h)
Lab book: enter the figure in h, no units written.

Give the value of Tmax reported for the following: COc1cc(-c2c(C)cc3c(c2NC(=O)NS(=O)(=O)c2ccn(C4CC(=C(F)F)C4)n2)CCC3)ccn1 (stereo not shown) [Compound 22]
1
